Assay: Clearance and half life: pharmacokinetics after IV or PO dosing, plasma measured by LC/MS/MS
Format: in vivo
Conditions: rat; half life from plasma levels (LC/MS/MS, WinNonlin); route not stated
Exercise: for every item that follows, state its recorded half-life.
A number alone suffices; assume min.

Memo: O=C(N[C@@H](Cc1ccc(OC(=O)N2CCOCC2)cc1)C(=O)O)c1ccccc1Cl [referencecarbamate] , reported half-life: 6

Memo: O=C(N[C@@H](Cc1ccc(OC(=S)N2CCOCC2)cc1)C(=O)O)c1ccccc1Cl [compound 1] , reported half-life: 61

The origin of these recorded values is patent US7015323B2.
